Experiment: Drug level in CD1 mouse at 1 mg/kg, po administered as bolus dose measured after 24 hrs
Assay type: ADME, organism-based
Conditions: in vivo, read-out: Drug uptake
Quantity name: concentration at 24 h (µM)
Give the quantity in µM, number only.

// sample CCN1CC(C(=O)NC(C)CCc2ccc(Cl)c(Cl)c2)=C(O)C1=O (stereo in doubt; 7c) , its concentration at 24 h was 4.31

----------
Test: Cmin in C57BL/6J mouse at 50 mg/kg, po administered once daily for 5 days measured 24 hrs post last dose
Type: ADME, organism-based
Conditions: in vivo, read-out: Cmin
Quantity name: concentration at 24 h (µM)
Supply the numeric figure in µM, leaving out any unit text.

// concentration at 24 h lookup, compound = CCN1CC(C(=O)NC(C)CCc2ccc(Cl)c(Cl)c2)=C(O)C1=O (stereo in doubt; 7c) , result: 57
